# Test system: EL4
# assay_name: Inhibitory growth of EL4 thymoma cell line from C57BL/6 mice
# Assay type: functional, cell-based
# assay_context: Mus musculus
Examples of compounds with documented IC50 follow.
observed_property: IC50

1) Cc1cc(C(=O)N[C@@H](CC(F)C(=O)O)C(=O)O)ccc1NCc1cnc2nc(N)nc(N)c2n1 (stereo in doubt; form 1) | > 100 µM
2) CN(Cc1cnc2nc(N)nc(N)c2n1)c1ccc(C(=O)N[C@@H](CC(F)C(=O)O)C(=O)O)cc1 (stereo in doubt; 2it) | > 100 µM
3) CCCc1cc(C(=O)N[C@@H](CC(F)C(=O)O)C(=O)O)ccc1NCc1cnc2nc(N)nc(N)c2n1 (stereo in doubt; form 1) | > 100 µM

###

# assay_name: Safety index = Ratio of lethal dose / suppressive dose value
# Format: toxicity
observed_property: Safety index

1) Cc1cc(C(=O)N[C@@H](CC(F)C(=O)O)C(=O)O)sc1N(C)Cc1cnc2nc(N)nc(N)c2n1 (stereo in doubt; form 1) | > 18
2) CCCc1cc(C(=O)N[C@@H](CC(F)C(=O)O)C(=O)O)ccc1NCc1cnc2nc(N)nc(N)c2n1 (stereo in doubt; form 1) | 40
3) CCc1cc(C(=O)N[C@@H](CC(F)C(=O)O)C(=O)O)ccc1NCc1cnc2nc(N)nc(N)c2n1 (stereo in doubt; form 2) | 120
4) Cc1cc(C(=O)N[C@@H](CC(F)C(=O)O)C(=O)O)ccc1NCc1cnc2nc(N)nc(N)c2n1 (stereo in doubt; form 2) | 80
5) Cc1cc(C(=O)N[C@@H](CC(F)C(=O)O)C(=O)O)sc1N(C)Cc1cnc2nc(N)nc(N)c2n1 (stereo in doubt; form 2) | 60

###

# assay_name: Compound dose causing lethality in mice
# Type: toxicity
# assay_context: mouse, in vivo
observed_property: Lethal dose (mg/kg)

1. Cc1cc(C(=O)N[C@@H](CC(F)C(=O)O)C(=O)O)ccc1NCc1cnc2nc(N)nc(N)c2n1 (stereo in doubt; form 1) | 12.5
2. Nc1nc(N)c2nc(CNc3ccc(C(=O)N[C@@H](CC(F)C(=O)O)C(=O)O)cc3F)cnc2n1 (stereo not given in full) | 200
3. CCc1cc(C(=O)N[C@@H](CC(F)C(=O)O)C(=O)O)ccc1NCc1cnc2nc(N)nc(N)c2n1 (stereo in doubt; form 2) | 150
4. CN(Cc1cnc2nc(N)nc(N)c2n1)c1ccc(C(=O)N[C@@H](CCC(=O)O)C(=O)O)cc1 [METHOTREXATE] | 40

###

# assay_name: Safety index = Ratio of lethal dose / suppressive dose value
# Assay type: toxicity
# assay_context: read-out: Safety index
The entries below are paired with their reported selectivity ratio.
observed_property: selectivity ratio

1) CN(Cc1cnc2nc(N)nc(N)c2n1)c1ccc(C(=O)N[C@@H](CCC(=O)O)C(=O)O)cc1 [METHOTREXATE] | 64
2) Nc1nc(N)c2nc(CNc3ccc(C(=O)N[C@@H](CC(F)C(=O)O)C(=O)O)cc3F)cnc2n1 (some centres not stated) | 160
3) Nc1nc(N)c2nc(CNc3ccc(C(=O)N[C@@H](CC(F)C(=O)O)C(=O)O)cc3Cl)cnc2n1 (some centres not stated) | 100
4) CN(Cc1cnc2nc(N)nc(N)c2n1)c1ccc(C(=O)N[C@@H](CC(F)C(=O)O)C(=O)O)cc1 (stereo in doubt; 2ie) | 12
5) CCc1cc(C(=O)N[C@@H](CC(F)C(=O)O)C(=O)O)ccc1NCc1cnc2nc(N)nc(N)c2n1 (stereo in doubt; form 1) | 160
6) Cc1cc(C(=O)N[C@@H](CC(F)C(=O)O)C(=O)O)ccc1NCc1cnc2nc(N)nc(N)c2n1 (stereo in doubt; form 1) | 40
